- target or test system: human orexin 2 receptor (Homo sapiens, UniProt O43614)
- Construct: stably expressing the full-length human orexin 2 receptor; expressed in transfected cells; host or cells: CHO-K1 (CHO-K1/hOx2), co-expressing aequorin
- Sequence (O43614 whole entry): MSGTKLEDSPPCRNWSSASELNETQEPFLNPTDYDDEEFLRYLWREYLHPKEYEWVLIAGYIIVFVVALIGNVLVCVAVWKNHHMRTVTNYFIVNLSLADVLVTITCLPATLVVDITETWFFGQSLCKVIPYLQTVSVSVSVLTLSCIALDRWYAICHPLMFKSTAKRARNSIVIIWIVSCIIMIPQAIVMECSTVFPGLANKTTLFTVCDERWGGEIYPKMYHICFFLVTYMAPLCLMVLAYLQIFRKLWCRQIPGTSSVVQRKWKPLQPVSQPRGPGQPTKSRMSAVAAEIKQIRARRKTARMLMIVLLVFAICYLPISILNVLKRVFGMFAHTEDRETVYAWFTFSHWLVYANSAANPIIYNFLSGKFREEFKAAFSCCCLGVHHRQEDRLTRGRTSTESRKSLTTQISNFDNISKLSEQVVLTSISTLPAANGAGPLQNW
- assay method text: Assay B: in vitro testing of OX2R potency, OX2R IP1
- Format: cell-based
- study conditions: 0.5 nM Orexin A concentration
- Excerpt: Activation of the orexin receptors expressed in cell lines results in an increase in intracellular IP3 concentration. IP1, a downstream metabolite of IP3, accumulates in cells following receptor activation and is stable in the presence of LiCl. Using Homogeneous Time-Resolved Fluorescence technology with Lumi4-Tb cryptate (commercially available from Cisbio Bioassay.) and a suitable fluorescence plate reader. […]
Recorded Kb, one value per entry.
# number only, unit nM dropped from output

Solved cases below.
C[C@@H](CNc1ncc(C(F)(F)F)cn1)N(CC(F)F)C(=O)c1cc(F)cc(F)c1-n1nccn1 [Example 1]    251
C[C@@H](CNc1ncc(C(F)(F)F)cn1)N(CC(F)F)C(=O)c1cc(F)ccc1-c1ncccn1 [Example 4]    70.8
C[C@@H](CNc1ncc(C(F)(F)F)cn1)N(CC(F)F)C(=O)c1cccc(F)c1-n1nccn1 [Example 2]    87.1
C[C@@H](CNc1ncc(C(F)(F)F)cn1)N(CC(F)F)C(=O)c1cccc(F)c1-c1ncccn1 [Example 3]    108

We now examine a further molecule.
Using human orexin 2 receptor (Homo sapiens, UniProt O43614) as the test system, report measured Kb of C[C@@H](CNc1ncc(C(F)(F)F)cn1)N(CC(F)F)C(=O)c1c(F)cccc1-c1ncccn1 [Example 5] .
143
